Assignment: determine reported pIC50 for the given compounds.
TARGET DESC: human VR1 receptors (Homo sapiens)
Construct: cell type not specified
Sequence (Q8NER1 whole entry): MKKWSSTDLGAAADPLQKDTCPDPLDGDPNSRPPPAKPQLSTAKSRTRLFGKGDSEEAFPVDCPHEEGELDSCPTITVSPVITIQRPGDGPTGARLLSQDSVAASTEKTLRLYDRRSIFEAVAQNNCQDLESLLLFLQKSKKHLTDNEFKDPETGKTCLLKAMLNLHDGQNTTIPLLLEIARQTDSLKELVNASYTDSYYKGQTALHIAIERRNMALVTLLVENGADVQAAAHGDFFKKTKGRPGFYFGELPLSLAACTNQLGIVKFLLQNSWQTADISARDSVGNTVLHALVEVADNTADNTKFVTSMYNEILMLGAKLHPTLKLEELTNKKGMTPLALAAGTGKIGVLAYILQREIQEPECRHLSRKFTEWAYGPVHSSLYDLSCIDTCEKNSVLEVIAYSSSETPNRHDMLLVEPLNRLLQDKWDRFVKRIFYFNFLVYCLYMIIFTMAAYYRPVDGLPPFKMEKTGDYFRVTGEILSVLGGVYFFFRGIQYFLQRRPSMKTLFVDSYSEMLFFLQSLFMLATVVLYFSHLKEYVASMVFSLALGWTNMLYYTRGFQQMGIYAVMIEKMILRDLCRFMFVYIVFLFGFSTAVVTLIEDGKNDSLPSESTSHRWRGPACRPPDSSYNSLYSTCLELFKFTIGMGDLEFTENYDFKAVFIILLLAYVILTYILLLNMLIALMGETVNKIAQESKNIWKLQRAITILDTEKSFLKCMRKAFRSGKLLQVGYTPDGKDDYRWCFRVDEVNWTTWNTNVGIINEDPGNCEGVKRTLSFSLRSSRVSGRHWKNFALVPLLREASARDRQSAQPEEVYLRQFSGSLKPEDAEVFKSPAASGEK
EXPERIMENT NOTES: Human VR1 antagonist assay (Ca2+ imaging)
STUDY CONDITIONS: cells expressing human VR1, fura-2 Ca2+ imaging, FDSS 6000; capsaicin (300 nM) or acid (pH5.8) stimulation, table does not say which
Excerpt: Human VR1 Antagonist Assay VR1 antagonistic activity can be determined by the Ca^2+ imaging assay using human VR1 highly expressing cells. The cells that highly express human VR1 receptors are obtainable from several different conventional methods. […] The capsaicin-induced changes in the intracellular calcium concentration were monitored using FDSS 6000 (Hamamatsu Photonics, Japan), a fluorometric imaging system. […]
Units for pIC50: none; it is -log10 of a concentration expressed in mol/L.

Cc1nc([C@@H](C)NC(=O)C2CC2(C)c2ccc(C(F)(F)F)cc2)ccc1NS(C)(=O)=O (stereo partly shown) yielded pIC50 of 6.63

Cc1cc([C@@H](C)NC(=O)C2CC2(C)c2ccc(C(C)(C)O)cc2)ccc1NS(C)(=O)=O (stereo partly shown) yielded pIC50 of 6.05

CCc1cc([C@@H](C)NC(=O)C2CC2(C)c2ccc(OC(F)(F)F)cc2)ccc1NS(C)(=O)=O (mixture of isomers) [Example 29] yielded pIC50 of 7.75

Cc1cc(CNC(=O)C2CC2c2ccc(C(C)(C)C(F)(F)F)cc2)ccc1NS(C)(=O)=O (stereo not shown) yielded pIC50 of 7.74

Cc1cc([C@@H](C)NC(=O)[C@H]2C[C@]2(C)c2ccc(C(F)(F)F)cc2)ccc1NS(C)(=O)=O [Example 70] yielded pIC50 of 9.08

Cc1nc([C@@H](C)NC(=O)C2CC2(C)c2ccc(C(C)(C)C(F)(F)F)cc2)ccc1NS(C)(=O)=O (stereo partly shown) yielded pIC50 of 6.77

CC[C@@H](NC(=O)[C@H]1C[C@]1(C)c1ccc(C(F)(F)F)cc1)c1ccc(NS(C)(=O)=O)cc1 yielded pIC50 of 6.72

Cc1cc([C@@H](C)NC(=O)C2CC2(C)c2ccc(OC(F)(F)F)cc2)ccc1NS(C)(=O)=O (stereo partly shown) [Example 16] yielded pIC50 of 8.18

C[C@@H](NC(=O)[C@H]1C[C@]1(C)c1ccc(C(F)(F)F)cc1)c1ccc(NS(C)(=O)=O)c(CCO)c1 yielded pIC50 of 8.32

Cc1cc([C@@H](C)NC(=O)C2CC2c2ccc(C(C)(C)C)cc2)ccc1NS(C)(=O)=O (stereo partly shown) yielded pIC50 of 7.82

CCc1cc([C@@H](CC)NC(=O)[C@H]2C[C@]2(C)c2ccc(C(F)(F)F)cc2)ccc1NS(C)(=O)=O yielded pIC50 of 7.70

C[C@@H](NC(=O)[C@H]1C[C@]1(C)c1cc(F)c(C(C)(C)C)c(F)c1)c1ccc(NS(C)(=O)=O)cc1 yielded pIC50 of 7.68

Cc1cc([C@@H](C)NC(=O)C2CC2(C)c2ccc(C(C)(C)C)nc2)ccc1NS(C)(=O)=O (stereo partly shown) yielded pIC50 of 8.44

Cc1cc([C@@H](C)NC(=O)C2CC2c2ccc(C(F)(F)F)cc2)ccc1NS(C)(=O)=O (stereo partly shown) [Example 19a] yielded pIC50 of 7.64

CCc1cc([C@@H](C)NC(=O)C2CC2(C)c2ccc(OC(F)(F)F)cc2)ccc1NS(C)(=O)=O (single isomer, unassigned) [Example 75] yielded pIC50 of 7.93

Cc1cc([C@@H](C)NC(=O)C2CC2(C)c2ccc(C(F)(F)F)c(F)c2)ccc1NS(C)(=O)=O (stereo partly shown) yielded pIC50 of 9.38

C[C@@H](NC(=O)[C@@H]1C[C@@]1(C)c1ccc(C(F)(F)F)c(F)c1)c1cc(F)c(NS(C)(=O)=O)c(F)c1 yielded pIC50 of 7.68

CC[C@@H](NC(=O)[C@H]1C[C@@H]1c1cc(F)c(C(C)(C)C)c(F)c1)c1ccc(NS(C)(=O)=O)c(C)c1 yielded pIC50 of 7.58

Cc1cc([C@@H](C)NC(=O)C2CC2(C)c2ccc(C(C)(C)C(F)(F)F)cc2)ccc1NS(C)(=O)=O (stereo partly shown) yielded pIC50 of 8.11

Cc1cc(CNC(=O)C2CC2c2ccc(C(C)(C)C)c(F)c2)ccc1NS(C)(=O)=O (stereo not shown) yielded pIC50 of 6.72

C[C@@H](NC(=O)[C@H]1C[C@@H]1c1ccc(C(F)(F)F)nc1N1CCCC1)c1ccc(NS(C)(=O)=O)c(CO)c1 yielded pIC50 of 8.12

Cc1cc([C@@H](C)NC(=O)C2CC2c2ccc(C(C)(C)C)cc2-c2ccncc2)ccc1NS(C)(=O)=O (stereo partly shown) yielded pIC50 of 5.98

Cc1cc([C@@H](C)NC(=O)C2CC2c2ccc(C(C)(C)C)cc2CO)ccc1NS(C)(=O)=O (stereo partly shown) yielded pIC50 of 7.21

Cc1cc([C@@H](C)NC(=O)C2CC2c2ccc(C(C)(C)C)nc2N2CCCCC2)ccc1NS(C)(=O)=O (stereo partly shown) yielded pIC50 of 6.90

C[C@@H](NC(=O)C1CC1(C)c1ccc(SC(F)(F)F)cc1)c1ccc(NS(C)(=O)=O)c(CO)c1 (stereo partly shown) yielded pIC50 of 7.58
